Test Description: chemical genetic growth profiling, strain panel (AID 1159580);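 further: tested at 20 µM; growth read once vehicle control cultures reached saturation at 30 °C; 1 = growth at the plate median or of vehicle wells; lower values mean less growth of the strain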
Applied Conditions: S. cerevisiae deletion strains, growth OD, locus YKL160W, strain elf1, hits give low values
In all, about 5,500 compounds went through this assay and about 2,000 (36%) were called active. Not shown: some 18% with an inconclusive outcome. This is one part of the list.
Recorded Endpoint: normalized growth

compound="CC(=O)[C@H]1CCC2C3CC=C4C[C@@H](O)CC[C@]4(C)C3CC[C@@]21C (stereo not given in full)" observed=0.944
compound=O=C1CCc2cc(OCCCCc3nnnn3C3CCCCC3)ccc2N1 observed=0.987
compound="CC(=O)OCC(=O)[C@H]1CCC2C3CC=C4C[C@@H](O)CC[C@]4(C)C3CC[C@@]21C (stereo not given in full)" observed=0.946
compound="Cn1nnnc1SCC1=C(C(=O)O)N2C(=O)C(NC(=O)C(O)c3ccccc3)C2SC1 (stereo not given)" observed=0.95
compound=NCC(=O)CCC(=O)O observed=0.98
compound=N[C@H](CO)Cc1ccccc1 observed=0.996
compound="CCC(/C=C/[C@@H](C)[C@H]1CCC2C3CC=C4C[C@@H](O)CC[C@]4(C)C3CC[C@@]21C)C(C)C (stereo not given in full)" observed=1.04
compound=CCN(CC)CCNc1ccc(CO)c2sc3ccccc3c(=O)c12 observed=1.01
compound="CC(=O)[C@H]1CCC2C3CC=C4C[C@@H](OC(=O)CCC(=O)O)CC[C@]4(C)C3CC[C@@]21C (stereo not given in full)" observed=0.951
compound=Cc1cc2cc3c(C)cc(=O)oc3c(C)c2o1 observed=0.951

Origin of values: PubChem BioAssay AID1159580
